# SYSTEM TESTED: myeloperoxidase (Homo sapiens, UniProt P05164)
# Sequence (P05164 279-745 limits assumed): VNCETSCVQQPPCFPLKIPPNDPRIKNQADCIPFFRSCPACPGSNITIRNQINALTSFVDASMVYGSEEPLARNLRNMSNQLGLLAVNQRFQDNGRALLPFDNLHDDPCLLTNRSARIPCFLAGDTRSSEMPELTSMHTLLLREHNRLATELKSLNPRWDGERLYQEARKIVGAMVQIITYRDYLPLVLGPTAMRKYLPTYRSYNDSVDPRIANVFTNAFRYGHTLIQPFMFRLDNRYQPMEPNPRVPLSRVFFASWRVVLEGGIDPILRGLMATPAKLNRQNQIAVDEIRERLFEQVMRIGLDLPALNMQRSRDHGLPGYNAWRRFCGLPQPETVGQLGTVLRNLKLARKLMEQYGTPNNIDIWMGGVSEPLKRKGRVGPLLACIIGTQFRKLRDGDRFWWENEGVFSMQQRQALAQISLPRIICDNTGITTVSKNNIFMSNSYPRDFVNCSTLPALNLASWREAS
# Sequence (P05164 165-273 limits assumed): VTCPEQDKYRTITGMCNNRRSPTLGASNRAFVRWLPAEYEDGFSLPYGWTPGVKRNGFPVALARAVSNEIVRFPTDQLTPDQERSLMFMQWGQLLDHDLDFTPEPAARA
# METHOD NOTES: Binding of 99mTc-labeled phage clones to 125I-myeloperoxidase, separated on spin column / Sepharose 6B column
# CONDITION DETAILS: 99mTc-phage (10^10 pfu) with 125I-myeloperoxidase (750 ng), 15-30 minutes at 4 degrees Celsius; after subtraction of binding by control phage MPO-4
OBSERVATION TYPE: Relative Binding (% bound)

>  <SEQUENCE CODE>
TVMLCNPMEQGCRWMC (displayed on f88-4 phage pVIII; Chemically synthesized, clone MPO-15) [f88-4/Cys6 phage clone displaying this 16 mer cysteine-constrained peptide in the pVIII coat protein]

>  <RECORDED RESULT>
4.5%

$$$$
>  <SEQUENCE CODE>
AMPVCSLDRKACTAYQ [MPO-1]

>  <RECORDED RESULT>
3.9%

$$$$
>  <SEQUENCE CODE>
RSGQCHDDTWNCLACV (displayed on f88-4 phage pVIII; Chemically synthesized, clone MPO-17) [f88-4/Cys6 phage clone displaying this 16 mer cysteine-constrained peptide in the pVIII coat protein]

>  <RECORDED RESULT>
8%

$$$$

// Relative Binding (% bound) lookup, sequence = HVLGCSYATNSCAHNA (displayed on f88-4 phage pVIII; Chemically synthesized, clone MPO-5) [MPO-6, f88-4/Cys6 phage clone displaying this 16 mer cysteine-constrained peptide in the pVIII coat protein] , result: 5.8%
